Origin of measurements: patent US20220064329A1

Target: T1, recombinant human activated Factor VII (FVIIa) (human, UniProt P08709 61-212; P08709 213-466, ten glutamate residues of the Gla domain may be gamma-carboxylated)
T1 construct: chains tethered by a disulfide bond; also called Factor VIIa; rFVIIa
T1 sequence 1: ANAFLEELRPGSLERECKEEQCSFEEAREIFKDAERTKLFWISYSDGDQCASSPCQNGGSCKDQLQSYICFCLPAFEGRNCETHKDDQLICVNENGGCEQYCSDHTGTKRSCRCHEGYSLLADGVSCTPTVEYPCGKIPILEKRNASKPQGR
T1 sequence 2: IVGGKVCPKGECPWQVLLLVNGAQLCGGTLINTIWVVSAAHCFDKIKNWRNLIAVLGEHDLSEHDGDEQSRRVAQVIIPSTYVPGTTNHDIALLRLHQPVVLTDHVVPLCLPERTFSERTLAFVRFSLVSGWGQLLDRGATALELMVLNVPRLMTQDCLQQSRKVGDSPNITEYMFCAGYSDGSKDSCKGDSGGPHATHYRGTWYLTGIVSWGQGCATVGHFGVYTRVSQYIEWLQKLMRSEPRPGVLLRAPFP
Experiment: BLI (Fortebio)
Kindly state Kd for each of the entries shown.
Give bare numbers, in nM.

Would you kindly share the measured Kd for VH SEQ ID NO 554 / VL SEQ ID NO 318 (antibody, IgG4, V domains shown, humanized 11F2; IgG4 S228P/kappa) VH: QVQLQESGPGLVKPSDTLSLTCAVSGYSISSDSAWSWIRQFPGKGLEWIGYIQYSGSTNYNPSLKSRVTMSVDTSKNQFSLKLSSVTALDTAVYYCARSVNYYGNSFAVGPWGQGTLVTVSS VL: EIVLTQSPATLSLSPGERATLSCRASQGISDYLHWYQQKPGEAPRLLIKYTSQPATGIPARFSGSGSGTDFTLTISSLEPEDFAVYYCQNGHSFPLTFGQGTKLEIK ?
15

Next:
Would you kindly share the measured Kd for VH SEQ ID NO 522 / VL SEQ ID NO 406 (antibody, IgG4, V domains shown, humanized 11F2; IgG4 S228P/kappa) VH: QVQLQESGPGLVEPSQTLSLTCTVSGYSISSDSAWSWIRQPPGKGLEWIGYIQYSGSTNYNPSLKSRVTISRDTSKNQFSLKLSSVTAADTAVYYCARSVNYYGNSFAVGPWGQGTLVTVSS VL: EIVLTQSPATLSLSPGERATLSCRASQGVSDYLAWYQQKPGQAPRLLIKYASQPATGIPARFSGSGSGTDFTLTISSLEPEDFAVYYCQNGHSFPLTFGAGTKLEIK ?
17
